molecular target: TIP48/TIP49 complex (Homo sapiens, UniProt Q9Y230+Q9Y265); experiment: ATPase assay of TIP48/TIP49 complex (ADP-Glo); details: concentration at which the ATPase activity was inhibited by 50%
Sequence (Q9Y230 whole entry): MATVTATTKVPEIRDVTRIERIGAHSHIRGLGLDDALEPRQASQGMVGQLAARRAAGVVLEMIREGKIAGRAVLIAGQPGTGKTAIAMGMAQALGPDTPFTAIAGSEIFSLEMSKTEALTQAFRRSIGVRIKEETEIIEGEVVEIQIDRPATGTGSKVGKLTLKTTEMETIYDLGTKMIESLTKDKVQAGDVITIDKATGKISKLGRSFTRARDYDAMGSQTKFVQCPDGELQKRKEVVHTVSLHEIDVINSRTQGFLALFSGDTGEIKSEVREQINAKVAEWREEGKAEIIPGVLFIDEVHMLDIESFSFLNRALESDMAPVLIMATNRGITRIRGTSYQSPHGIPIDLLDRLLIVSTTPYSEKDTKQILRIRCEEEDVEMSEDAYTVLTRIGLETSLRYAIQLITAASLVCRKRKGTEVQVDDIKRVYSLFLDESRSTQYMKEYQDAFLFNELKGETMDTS
Sequence (Q9Y265 whole entry): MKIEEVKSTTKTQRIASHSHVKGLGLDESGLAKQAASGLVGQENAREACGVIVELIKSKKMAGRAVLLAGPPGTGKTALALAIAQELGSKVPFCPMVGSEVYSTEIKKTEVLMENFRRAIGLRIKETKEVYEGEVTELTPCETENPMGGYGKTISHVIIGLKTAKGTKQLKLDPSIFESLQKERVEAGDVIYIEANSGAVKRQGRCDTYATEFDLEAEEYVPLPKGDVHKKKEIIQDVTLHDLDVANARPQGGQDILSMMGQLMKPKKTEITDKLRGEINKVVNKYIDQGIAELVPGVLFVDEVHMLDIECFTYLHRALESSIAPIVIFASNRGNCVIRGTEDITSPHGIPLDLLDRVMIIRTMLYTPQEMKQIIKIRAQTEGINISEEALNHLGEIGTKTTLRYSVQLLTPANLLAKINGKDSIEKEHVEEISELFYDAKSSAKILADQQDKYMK
The reader will find reported IC50 values listed item by item below.
Quantity kind: IC50 (µM)

>>> print(df.to_string())
                                   molecule  reported_value
0  CCOc1cc(F)c(Cl)cc1C(=O)NCC(C)(C)CC(=O)Nc1c(C(C)CN(C)C)n(C)n(-c2ccccc2)c1=O (centres unmarked) [Example 69]           0.065
1  CCOc1ccc(Cl)cc1C(=O)NCC(C)(C)CC(=O)Nc1c(COc2cccnc2)n(C)n(-c2ccccc2)c1=O [Example 135]             0.1
2  CCOc1ccc(Cl)cc1C(=O)NCC(C)(C)CC(=O)Nc1c(COC)n(C)n(-c2ccccc2)c1=O [Example 114]           0.031
3  CCOc1cc(F)c(Cl)cc1NC(=O)CC(C)(C)CC(=O)Nc1c(COC)n(C)n(-c2ccccc2)c1=O [Example 119]           0.095
4  CCOc1ncc(Cl)cc1C(=O)NCC(C)(C)CC(=O)Nc1c([C@@H](C)CN(C)C)n(C)n(-c2ccccc2)c1=O [Example 72]            0.08
5  CCOc1ncc(Cl)cc1C(=O)NCC(C)(C)CC(=O)Nc1c(C(CN(C)C)OC)n(C)n(-c2ccccc2)c1=O (single isomer, unassigned; (+)) [Example 83]           0.065
6  CCOc1ncc(Cl)cc1C(=O)NCC(C)(C)CC(=O)Nc1c(C[C@H](C)N(C)C)n(C)n(-c2ccccc2)c1=O [Example 53]           0.063
7  COCc1c(NC(=O)CC(C)(C)CNC(=O)c2cc(Cl)cc3c2OC(C)(C)C3)c(=O)n(-c2ccccc2)n1C [Example 121]           0.061

Measured values drawn from patent US20170107207A1 for this set.
